# experimental_protocol: Positive allosteric modulator activity at human T1R2/T1R3 expressed in PEAKrapid cells assessed as potentiation of sucrose-induced intracellular calcium influx by measuring sucrose EC50 at 30 uM measured for 120 secs by fluorescence based assay (Rvb = 31.7 mM)
Hi! Could you tag entries with EC50 below 10 mM as Condition met, and those at or above as Condition not met? Much appreciated.

Use these answered entries as a reference point.
>  <compound>
Nc1c(NC(=O)CCCCNC(=O)[C@@H](N)C2CCCCC2)cncc1C(=O)O

>  <label>
Condition met

$$$$
>  <compound>
Cc1nc2cccc(OCC(C)(C)C(=O)NC(C)C)c2c(N)c1C(=O)O

>  <label>
Condition met

$$$$
>  <compound>
CC(C)[C@H](N)C(=O)NCc1ccc(-c2cncc(C(=O)O)c2N)o1

>  <label>
Condition not met

$$$$

Lab note: confirm whether the reported EC50 for this compound is below 10 mM, equality not counting. compound: CC(C)[C@@H](CC(=O)Nc1cncc(C(=O)O)c1N)NC(=O)[C@@H](N)C1CCCCC1
Condition not met

Item CC(C)C(=O)NCc1ccc(-c2cncc(C(=O)O)c2N)o1 : EC50 beneath 10 mM, strictly?
Condition not met

Identify whether the compound CC(C)C[C@H](N)C(=O)NCc1ccc(-c2cncc(C(=O)O)c2N)o1 records EC50 below 10 mM.
Condition not met

Below 10 mM on EC50? Entry CC[C@H](C)[C@@H](CCC(=O)Nc1cncc(C(=O)O)c1N)NC(=O)[C@@H](N)C1CCCCC1
Condition met

Criterion: EC50 strictly below 10 mM. Is it met by CC(C)(C)OC(=O)NCc1ccc(-c2cncc(C(=O)O)c2N)o1 ?
Condition not met

Regarding CC(=O)NCc1ccc(-c2cncc(C(=O)O)c2N)o1 , kindly confirm whether its EC50 is beneath 10 mM.
Condition not met

These measurements were taken from BindingDB's records for doi:10.1021/acsmedchemlett.9b00051.
